# melting point annotations

Examples with answers:
1) N#Cc1ccc2cc(C(=O)O)ccc2c1	279 to 281 °C
2) COc1ccc(CNc2cnn(C)c2)c(OC)c1	81 to 83 °C
3) CCOC(=O)/C(C#N)=C/Nc1cc(OC)cc(OC)c1	140 to 142 °C

Let's switch to this compound now.
Using the record for "O=C(O)c1ccc(Sc2ccccc2)c([N+](=O)[O-])c1" , report its melting point.
228 to 230 °C

---

Catalogue of compounds with associated melting point

Look over these answered cases.
1. CC(=O)c1cn(C)nc1C	72 to 74 °C
2. CCS(=O)(=O)N1Cc2ccccc2CC1C(=O)O (stereo not given)	110 to 114 °C
3. O=C(c1cccnc1Cl)N1CCCCC1	67 to 69 °C

Which melting point is listed for "CNS(=O)(=O)c1cc(/C=C/C(=O)O)ccc1OC" ?
238 to 240 °C

Next up: "O=c1ccn(C2CC2)c(S)n1"
238 to 240 °C

And what about the compound "Nc1nc(N)nc(C2CCCC2)n1" ?
202 to 204 °C

What do we get for OC1(Cc2cccc(F)c2)CCNC1 (stereo not given) ?
59 to 61 °C

Please do the same for "O=C(Nc1ccccc1F)Nc1cccc2c1CCCN2" as well.
204 to 206 °C

---

reported-endpoint: melting point

Past entries and their recorded results:
1) CC(N)=NO	118 to 120 °C
2) Cc1ccccc1-c1nnc(CCl)o1	99 to 101 °C

Returns the measured melting point for the input compound. Input: "NC(=O)Cn1cnc(-c2ccccc2)c1N"
209 to 211 °C

Next up: "O=C(O)c1ccc(F)c(S)c1"
163 to 165 °C

---

reported-endpoint: melting point

1) O=C(O)C1(O)CCCC1	84 to 86 °C
2) CN1CCN(c2ccc(N)cc2Cl)CC1	127 to 129 °C
3) CC1C(=O)NCCN1C(=O)c1cccs1 (stereo not drawn)	129 to 131 °C
4) O=c1[nH]nc(Br)c(=O)[nH]1	188 to 190 °C
5) Fc1ccccc1CNc1ccc(Cl)nn1	169 to 171 °C

What does the data say about its melting point? Entry: "CC(C)(C)NCC(N)=O"
49 to 51 °C

Then what about the compound "Cc1n[nH]c(C)c1-c1ccccc1N" ?
162 to 164 °C

Now try "O=C(NO)c1ccccc1Br" .
182 to 184 °C

---

reported-endpoint: melting point

1. O=C(Nc1ccc(O)cc1)c1ccccc1	215 to 217 °C
2. O=C(O)CN1Cc2ccccc2C1	209 to 211 °C
3. Nc1cc(I)ccc1Br	64 to 66 °C
4. Cc1cc([N+](=O)[O-])c(C)cc1C#N	119 to 121 °C
5. CCOC(=O)C(=O)NN	39 to 41 °C

--- query ---
Report melting point for "CC(C)CC1CC(=O)NC(=O)C1" please.
136 to 138 °C

---

Readings of melting point for the listed molecules

1) CC(C(=O)O)c1ccc(Br)s1 (stereo not drawn)	55 to 57 °C
2) CCOC(=O)c1nn(-c2ccccc2)cc1O	86 to 88 °C
3) O=C(O)C(Sc1ccccc1Cl)c1ccccc1 (stereo not drawn)	116 to 118 °C
4) O=C(O)CCNC(=O)c1cc(F)ccc1Br	112 to 114 °C
5) COC(=O)c1cc(S(=O)(=O)Cl)c(F)cc1F	104 to 106 °C
6) CC(C)Cc1ccc(C(=O)CBr)cc1	37 to 39 °C
7) O=S(=O)(Nc1nc2ccccc2nc1Cl)c1ccccc1	172 to 174 °C
8) CSc1nn(C)c2nc[nH]c(=O)c12	251 to 253 °C

What melting point value was documented for this molecule, CC1(c2cccc(C(N)=O)c2)NC(=O)NC1=O (stereo not drawn) ?
225 to 227 °C

Further, for "O=C(O)c1ccc(Oc2ccc(F)c(F)c2)cc1" ?
156 to 158 °C

Next entry: OC(c1ccccc1)c1cccc(Cl)c1Cl (stereo not drawn)
79 to 81 °C

Similarly, "Nc1ccnc(C(=O)O)c1" ?
198 to 200 °C

Another molecule to check: "Fc1cccc2ncnc(Cl)c12"
139 to 141 °C

# iterate: "Cc1c(C(=O)O)nnn1-c1ccc(F)cc1"
181 to 183 °C

Please give the result for "Nc1cccc(NC(=O)c2ccncc2)c1" too.
185 to 187 °C

For "O=[N+]([O-])c1ccc(N2CCC(CO)CC2)nc1" then?
123 to 125 °C

Same read-out for "COC(=O)c1cc([N+](=O)[O-])cc([N+](=O)[O-])c1OC" ?
69 to 71 °C

"C=CCNC(=O)c1cccnc1Cl" , same question.
75 to 77 °C

---

melting point values for the molecules below.

1) Cc1oncc1C(=O)Nc1ccc(C(=O)O)c(O)c1	214 to 216 °C
2) N#Cc1ncn(CC(N)=O)n1	194 to 196 °C
3) Cc1ccc(C(=O)NC=C(Cl)Cl)cc1	96 to 98 °C
4) O=C1CCCCc2c[nH]cc21	64 to 66 °C
5) NNC(=O)C1Cc2ccccc2CN1Cc1ccccc1 (stereo not drawn)	128 to 130 °C

Can you share its melting point? I mean this molecule: "COc1ccc(S(=O)(=O)NCC(=O)O)cc1"
131 to 133 °C

What do you have for "O=C(O)c1cnc(Cl)nc1Cl" ?
96 to 98 °C

Next record, please: "CSC(=CC(=O)c1cccnc1)SC"
103 to 105 °C

What do we get for "COCCNc1nnc(S)s1" ?
120 to 122 °C

Then Cc1cc2ncn(C(C)C(N)=S)c2cc1C (stereo not drawn) ?
204 to 206 °C

Another molecule to check: "Nc1ccc(C2(c3ccc(N)cc3)CCCCC2)cc1"
110 to 112 °C

Follow-up entry: "Nc1ccc(F)c(NS(=O)(=O)c2cccs2)c1"
179 to 181 °C

Then this molecule: "O=C(c1cccnc1)c1ccc(F)cc1F"
54 to 56 °C

Would you kindly repeat that for "COc1ccc(C=O)cc1OCc1cccnc1" ?
84 to 86 °C

Param item: "O=C(CCl)Nc1ccc(Cl)c(Cl)c1"
103 to 105 °C

What about "Cc1nc(-c2cccnc2)[nH]c(=O)c1CCC(=O)O" ?
279 to 281 °C

Lookup "Nc1ccc2nc3n(c(=O)c2c1)CCC3"
221 to 223 °C

And then "Cn1ccnc1C(=O)c1ccco1" , what is it?
34 to 36 °C

Same lookup for "NC(=O)CCc1ccc(F)c(F)c1" , please.
99 to 101 °C

Now consider "Cc1cc(C)c2c(c1)c(C)cc1nnc(S)n12" and answer again.
262 to 264 °C

Please answer likewise for "Oc1cnnc(S)n1"
244 to 246 °C

Another molecule: "O=C(O)C1(c2ccc(Br)cc2)CC1"
155 to 157 °C

Further, for "Cc1cc(N)ccc1S(C)(=O)=O" ?
144 to 146 °C

Note, next up: "COc1ccc(-c2cc(CBr)on2)cc1"
88 to 90 °C

Can you check "CCOC(=O)c1cc(Br)cc(F)c1N" next?
48 to 50 °C

Can you handle Cc1cn(C2CC(O)C(CO)O2)c(=O)[nH]c1=O (stereo not drawn) next?
187 to 189 °C

"O=C(O)c1cc2cccc(C(F)(F)F)c2[nH]1" , same question.
179 to 181 °C

What do you have for "Nc1cncc(Cl)n1" ?
149 to 151 °C

Thanks! And "COC(=O)COc1cc(N)c(Cl)cc1C" ?
88 to 90 °C

---

reported-endpoint: melting point

Previously resolved entries follow.
1) CC(=O)Nc1cc(F)ccc1-c1csc(N)n1	127 to 129 °C
2) O=S(=O)(Cl)c1cccc(-n2cnnn2)c1	125 to 127 °C
3) NCCNS(=O)(=O)c1cccc(Cl)c1	84 to 86 °C
4) Cc1cc(Oc2ncccn2)ccc1N	132 to 134 °C
5) CNC(C(=O)O)c1ccc(F)cc1F (stereo not drawn)	277 to 279 °C
6) Cc1cc(NC(=O)C2CCCC2)sc1C(=O)O	174 to 176 °C
7) CC(=O)NCc1ccc(C(=O)O)s1	186 to 188 °C
8) Cc1ccc(-c2csc(CC#N)n2)cc1	91 to 93 °C
9) O=C(O)c1c[nH]c2ncccc12	213 to 215 °C
10) CN(C)S(=O)(=O)c1ccc2c(c1)CCCN2	160 to 162 °C

Need melting point, item "CCCNC(=O)Nc1ccc(CC(=O)O)cc1"
174 to 176 °C

And CC(C)(C)OC(=O)NC1CCCCCC1=O (stereo not drawn) ?
67 to 69 °C

Repeat with CC(C#N)CSc1ccccc1NC(=O)CCl (stereo not drawn)
94 to 96 °C

Next entry: "N#CCC(=O)Nc1ccccn1"
160 to 162 °C

Query "O=C(O)CCS(=O)(=O)N1CCOCC1" next
163 to 165 °C
